Items are presented alongside their recorded Ki.
testedOn: human vasopressin V1b receptor (Homo sapiens)
Sequence (P47901 1-424): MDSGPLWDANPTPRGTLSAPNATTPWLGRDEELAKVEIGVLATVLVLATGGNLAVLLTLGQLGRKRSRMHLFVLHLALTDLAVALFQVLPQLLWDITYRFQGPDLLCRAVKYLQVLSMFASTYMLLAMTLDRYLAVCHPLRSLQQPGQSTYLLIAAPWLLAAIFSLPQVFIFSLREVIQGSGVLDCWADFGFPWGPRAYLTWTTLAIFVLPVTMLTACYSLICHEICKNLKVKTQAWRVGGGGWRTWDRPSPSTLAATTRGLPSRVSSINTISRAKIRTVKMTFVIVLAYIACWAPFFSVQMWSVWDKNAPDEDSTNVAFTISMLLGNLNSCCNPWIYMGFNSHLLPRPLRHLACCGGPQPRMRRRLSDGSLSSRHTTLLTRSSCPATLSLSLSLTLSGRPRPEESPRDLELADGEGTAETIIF

{"compound": "COc1ccc(S(=O)(=O)N2C(=O)C(N[C@@H](C)c3ncco3)(c3cc(CN4CCNCC4)ccc3OC)c3cc(Cl)ccc32)cc1 (stereo partly drawn) [Example 135]", "Ki": "< 10 nM"}

For the record COc1ccc(S(=O)(=O)N2C(=O)C(NCc3ncco3)(c3cc(CN4CCN(C)CC4)ccc3OC)c3cc(Cl)ccc32)cc1 (stereo not drawn) [Example 110] , what value of Ki is listed for human vasopressin V1b receptor (Homo sapiens)? 10 to 100 nM

For the record COc1ccc(S(=O)(=O)N2C(=O)C(c3cc(CN4CCN(C)CC4)ccc3OC)(N3CCC[C@H]3c3ncco3)c3cc(Cl)ccc32)c(OC)c1 (stereo partly drawn) [Example 86] , what value of Ki is listed for human vasopressin V1b receptor (Homo sapiens)? 10 to 100 nM

###

Target sequence: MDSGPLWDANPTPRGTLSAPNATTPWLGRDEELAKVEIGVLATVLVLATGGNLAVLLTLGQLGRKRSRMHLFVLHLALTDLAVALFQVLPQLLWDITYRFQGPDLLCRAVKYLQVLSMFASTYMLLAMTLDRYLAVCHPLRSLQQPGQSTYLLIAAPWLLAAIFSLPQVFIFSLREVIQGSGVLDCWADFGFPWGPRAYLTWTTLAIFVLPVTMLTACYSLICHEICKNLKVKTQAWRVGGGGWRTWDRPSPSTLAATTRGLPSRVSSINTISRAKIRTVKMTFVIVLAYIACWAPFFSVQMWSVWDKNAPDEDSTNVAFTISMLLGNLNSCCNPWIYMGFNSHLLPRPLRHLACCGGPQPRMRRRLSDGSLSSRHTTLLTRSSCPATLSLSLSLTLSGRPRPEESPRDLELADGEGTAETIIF
Items are presented alongside their recorded Ki.

These recorded examples may help you get a feel for the data.
{"compound": "COc1ccc(S(=O)(=O)N2C(=O)C(c3cc(CN4CCC(O)CC4)ccc3OC)(N3CCC[C@H]3c3ncco3)c3cc(C#N)ccc32)cc1 (stereo partly shown)", "reportedMeasurement": "< 10 nM"}
{"compound": "COc1ccc(S(=O)(=O)N2C(=O)C(c3cc(CNC4CC4)ccc3OC)(N3CCC[C@H]3c3ncco3)c3cc(Cl)ccc32)cc1 (stereo partly shown)", "reportedMeasurement": "< 10 nM"}

Quick one: Ki of COc1ccc(S(=O)(=O)N2C(=O)C(c3cc(CN4CCCCC4)ccc3OC)(N3CCC[C@H]3c3ncco3)c3cc(Cl)ccc32)cc1 (stereo partly shown) ? < 10 nM

Quick one: Ki of CCN(C)Cc1ccc(OC)c(C2(N3CCC[C@H]3c3ncco3)C(=O)N(S(=O)(=O)c3ccc(OC)cc3)c3ccc(C#N)cc32)c1 (stereo partly shown) ? 10 to 100 nM

Quick one: Ki of COc1ccc(S(=O)(=O)N2C(=O)C(c3ccc(CN4CCNCC4)cc3OC)(N3CCC[C@H]3c3ncco3)c3cc(Cl)ccc32)cc1 (stereo partly shown) ? < 10 nM

Quick one: Ki of COc1ccc(S(=O)(=O)N2C(=O)C(c3cc(CN4CCOCC4)ccc3OC)(N3CCC[C@H]3c3ncco3)c3ccc(Cl)cc32)cc1 (stereo partly shown) ? 100 to 1000 nM

Quick one: Ki of COc1ccc(S(=O)(=O)N2C(=O)C(c3cc(CNC(C)C)ccc3F)(N3CCC[C@H]3c3ncco3)c3cc(Cl)ccc32)cc1 (stereo partly shown) ? 10 to 100 nM

###

testedOn: human vasopressin V1b receptor (Homo sapiens, UniProt P47901)
Construct: expressed in transfected cells; host or cells: CHO-K1 (cell line hV1b_3H2_CHO), membrane preparation
protocolSummary: Vasopressin V1b receptor binding test
reportedConditions: membranes of CHO-K1 cells with human V1b receptor, displacement of 1.5 nM 3H-AVP; for compounds with more than one stereogenic center the diastereomer with greater affinity
Items are presented alongside their recorded Ki.

These recorded examples may help you get a feel for the data.
{"molecule": "COc1ccc(S(=O)(=O)N2C(=O)C(c3cc(CN(C)C)ccc3OC)(N3C[C@H](OC)C[C@H]3c3ncco3)c3cc(Cl)ccc32)cc1 (stereo partly shown) [Example 223]", "Ki": "< 10 nM"}
{"molecule": "COc1ccc(S(=O)(=O)N2C(=O)C(c3cc(CN4CCN(C(C)C)CC4)ccc3OC)(N3CCC[C@H]3c3ncco3)c3cc(Cl)c(Cl)cc32)cc1 (stereo partly shown) [Example 104]", "Ki": "10 to 100 nM"}
{"molecule": "COc1ccc(S(=O)(=O)N2C(=O)C(c3cc(CN4CCCC4)ccc3OC)(N3CCCC3c3nccs3)c3cc(Cl)ccc32)cc1 (stereo not shown) [Example 118]", "Ki": "10 to 100 nM"}

Attention now turns to another entry.
Quick one: Ki of COc1ccc(S(=O)(=O)N2C(=O)C(c3cc(CN4CCN(C)CC4)cnc3OC)(N3CCC[C@H]3c3ncco3)c3cc(Cl)ccc32)cc1 (stereo partly shown) [Example 164] ? < 10 nM

###

testedOn: human vasopressin V1b receptor (Homo sapiens, UniProt P47901)
Sequence (P47901 1-424): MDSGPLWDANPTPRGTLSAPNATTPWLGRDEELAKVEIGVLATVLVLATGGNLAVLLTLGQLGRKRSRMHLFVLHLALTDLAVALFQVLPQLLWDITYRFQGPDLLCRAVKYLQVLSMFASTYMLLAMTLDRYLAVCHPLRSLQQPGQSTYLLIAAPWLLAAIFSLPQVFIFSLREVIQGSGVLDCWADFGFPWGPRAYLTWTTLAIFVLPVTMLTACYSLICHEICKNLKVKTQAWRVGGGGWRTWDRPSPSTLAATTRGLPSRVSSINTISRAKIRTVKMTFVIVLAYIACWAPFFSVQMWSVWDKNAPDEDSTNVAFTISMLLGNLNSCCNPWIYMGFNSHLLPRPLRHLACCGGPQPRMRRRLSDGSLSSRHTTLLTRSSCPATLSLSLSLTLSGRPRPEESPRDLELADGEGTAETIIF
pKi: −log10 of the molar value.
readoutKind: pKi

{"compound": "COc1ccc(S(=O)(=O)N2C(=O)C(c3cc(CN4CCN(C(C)C)CC4)ccc3OC)(N3CCC[C@H]3c3ncco3)c3cc(Cl)ccc32)cc1 (stereo partly drawn)", "pKi": "> 8.00"}
{"compound": "COc1ccc(S(=O)(=O)N2C(=O)C(c3ccc(CNCCO)cc3OC)(N3CCC[C@H]3c3ncco3)c3cc(C#N)ccc32)cc1 (stereo partly drawn)", "pKi": "> 8.00"}

For the record COc1ccc(S(=O)(=O)N2C(=O)C(c3cc(CN(C)C)cc4c3OCO4)(N3CCC[C@H]3c3ncco3)c3cc(Cl)ccc32)cc1 (stereo partly drawn) , what value of pKi is listed for human vasopressin V1b receptor (Homo sapiens, UniProt P47901)? 7.00 to 8.00
